- Study target: T1, I-TAC (CXCL11) (UniProt O14625 22-94)
- T1 construct: Bought chemokine; also called I-TACK
- T1 sequence (looked up): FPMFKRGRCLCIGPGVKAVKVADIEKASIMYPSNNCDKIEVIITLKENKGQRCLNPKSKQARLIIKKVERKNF
- Assay summary: micro-array, phage-presented peptide on printed CK

[
  {
    "Binder": "SYYDDVGL [Phage-Presented Peptide 27 (Ph-p27)]",
    "Relative Fluorescence Units (RFU)": "> 15000 RFU"
  },
  {
    "Binder": "DYDYG [Phage-Presented Peptide 31 (Ph-p31)]",
    "Relative Fluorescence Units (RFU)": "> 15000 RFU"
  },
  {
    "Binder": "DYDY [Phage-Presented Peptide 32 (Ph-p32)]",
    "Relative Fluorescence Units (RFU)": "> 10000 RFU"
  },
  {
    "Binder": "WVFGVHFCK [Phage-Presented Peptide 8.77 (Ph-p8.77)]",
    "Relative Fluorescence Units (RFU)": "> 15000 RFU"
  }
]

Source of measurements: patent US20100227824A1
